target_or_test_system: wild-type Androgen Receptor (AR-wt) (Homo sapiens)
Construct: expressed in transfected cells; host or cells: LNCaP (LNCaP AR (cs))
Sequence (P10275 1-920): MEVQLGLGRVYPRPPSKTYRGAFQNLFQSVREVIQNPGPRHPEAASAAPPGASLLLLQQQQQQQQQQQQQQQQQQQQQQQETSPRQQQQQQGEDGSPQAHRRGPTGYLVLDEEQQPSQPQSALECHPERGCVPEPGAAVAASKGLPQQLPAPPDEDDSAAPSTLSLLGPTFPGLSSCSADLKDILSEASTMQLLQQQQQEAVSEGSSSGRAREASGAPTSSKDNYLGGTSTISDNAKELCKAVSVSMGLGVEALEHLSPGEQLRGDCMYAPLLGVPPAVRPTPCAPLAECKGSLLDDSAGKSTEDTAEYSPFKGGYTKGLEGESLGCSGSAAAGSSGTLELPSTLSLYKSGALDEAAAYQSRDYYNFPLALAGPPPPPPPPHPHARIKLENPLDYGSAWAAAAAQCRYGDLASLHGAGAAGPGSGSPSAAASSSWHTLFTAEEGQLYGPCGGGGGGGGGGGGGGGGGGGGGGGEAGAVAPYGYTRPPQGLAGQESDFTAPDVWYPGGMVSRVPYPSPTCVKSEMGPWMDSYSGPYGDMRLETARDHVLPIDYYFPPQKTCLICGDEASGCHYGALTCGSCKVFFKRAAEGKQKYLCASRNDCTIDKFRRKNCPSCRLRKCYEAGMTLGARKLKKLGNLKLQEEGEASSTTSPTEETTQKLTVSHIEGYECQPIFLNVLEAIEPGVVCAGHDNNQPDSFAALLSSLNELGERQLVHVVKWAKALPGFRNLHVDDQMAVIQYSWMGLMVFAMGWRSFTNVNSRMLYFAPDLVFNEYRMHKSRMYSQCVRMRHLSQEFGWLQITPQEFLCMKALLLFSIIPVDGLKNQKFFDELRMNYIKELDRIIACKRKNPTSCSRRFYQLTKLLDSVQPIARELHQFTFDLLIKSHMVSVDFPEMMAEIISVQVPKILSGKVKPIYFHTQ
assay_text: LNCaP-AR-wt ANT reporter assay (ARE firefly luciferase, antagonist mode)
Format: cell-based
conditions_used: antagonist mode, 400 pM R-1881 challenge; −Log10(IC50 [Molar]); read-out: LNCaP-AR-wt ANT pIC50 (converted)
Overview of reported log10 IC50 across a group of molecules:
Record value = log10 of IC50 given in µM.

Solved entries:
{"columns": ["molecule", "experimental_result"],
 "data": [
  ["CC(C)(O)CNC(=O)c1ccc(N2C(=S)N(c3cnc(C#N)c(C(F)(F)F)c3)C(=O)C23CCC3)cc1F [Cpd 17]", 0.43],
  ["Cc1cncc(-c2ccc(N3C(=S)N(c4cnc(C#N)c(C)c4)C(=O)C34CCC4)cc2)c1 [Cpd 114]", -0.62],
  ["Cc1cc(N2C(=O)C3(CCC3)N(c3ccc(-c4cncc(F)c4)cc3)C2=S)cnc1C#N [Cpd 104]", -0.89],
  ["N#Cc1ncc(N2C(=O)C3(CCC3)N(c3ccc(C(=O)NCCCO)c(F)c3)C2=S)cc1C(F)(F)F [Cpd 40]", -0.62],
  ["Cc1cc(N2C(=O)C3(CCC3)N(c3ccc(OC4CCN(C)CC4)c(F)c3)C2=S)cnc1C#N [Cpd 116]", 0.41]
]}

Answer with the recorded log10 IC50 of N#Cc1ncc(N2C(=O)C3(CCC3)N(c3ccc(OC4CCN(CCO)CC4)cc3)C2=S)cc1C(F)(F)F [Cpd 51] only.
-0.41

Fill in log10 IC50 for record Cc1cc(N2C(=O)C3(CCC3)N(c3ccc(C(=O)Nc4ccccc4F)c(F)c3)C2=S)cnc1C#N [Cpd 11]
-0.17

Find the measured log10 IC50 of Cc1cc(N2C(=O)C3(CCC3)N(c3ccc(OC4CCSCC4)cc3)C2=S)cnc1C#N [Cpd 13] and report it.
-0.39

====

target_or_test_system: F876L mutant Androgen Receptor (AR-F876L) (Homo sapiens, UniProt P10275, F877L)
Construct: expressed in transfected cells; host or cells: LNCaP (LNCaP F876L)
assay_text: LNCaP-AR-F876L AG reporter assay (ARE firefly luciferase, agonist mode)
Assay type: cell-based
conditions_used: read-out: LNCaP-AR-F876L AG MAX % Stim
property_measured: Emax (%)
All answers are understood in %, so give the number only.

{"columns": ["compound", "result_unit", "Emax"],
 "data": [
  ["CN1CCC(Oc2ccc(N3C(=S)N(c4cnc(C#N)c(C(F)(F)F)c4)C(=O)C34CCC4)cc2F)CC1 [Cpd 28]", "%", 0]
]}

Fill in reported Emax for this entry: N#Cc1ncc(N2C(=O)C3(CCC3)N(c3ccc(Oc4ccccn4)cc3)C2=S)cc1C(F)(F)F [Cpd 103]
2

State its Emax: CN1CCN(CCCc2ccc(N3C(=S)N(c4cnc(C#N)c(C(F)(F)F)c4)C(=O)C34CCC4)cc2)CC1 [Cpd 43]
0.4

Assign Emax to the following record: Cc1cc(N2C(=O)C3(CCC3)N(c3ccc(-c4cncnc4)cc3)C2=S)cnc1C#N [Cpd 93]
0.8

====

target_or_test_system: F876L mutant Androgen Receptor (AR-F876L) (Homo sapiens, UniProt P10275, F877L)
Construct: expressed in transfected cells; host or cells: LNCaP (LNCaP F876L)
assay_text: LNCaP-AR-F876L ANT reporter assay (ARE firefly luciferase, antagonist mode)
Assay type: cell-based
conditions_used: read-out: LNCaP-AR-F876L ANT MAX % Inh
property_measured: Emax (%)
Response body: numeric value in %, unit text excluded.

# assay system F876L mutant Androgen Receptor (AR-F876L) (Homo sapiens, UniProt P10275, F877L): give Emax of `Cc1cc(N2C(=O)C3(CCC3)N(c3ccc(C(=O)NC4CCOCC4)c(F)c3)C2=S)cnc1C#N`
99.3

====

target_or_test_system: F876L mutant Androgen Receptor (AR-F876L) (Homo sapiens, UniProt P10275, F877L)
Construct: expressed in transfected cells; host or cells: LNCaP (LNCaP F876L)
assay_text: LNCaP-AR-F876L AG reporter assay (ARE firefly luciferase, agonist mode)
Format: cell-based
conditions_used: agonist mode; −Log10(EC50 [Molar]); read-out: LNCaP-AR-F876L AG pEC50 (converted)
property_measured: EC50

{"columns": ["cpd_smiles", "target_or_test_system", "EC50"],
 "data": [
  ["N#Cc1ncc(N2C(=O)C3(CCC3)N(c3ccc(C(=O)NCCCN4CCCC4=O)c(F)c3)C2=S)cc1C(F)(F)F", "F876L mutant Androgen Receptor (AR-F876L) (Homo sapiens, UniProt P10275, F877L)", "> 15.1 µM"]
]}

Read the entry `Cc1cc(N2C(=O)C3(CCC3)N(c3ccc(OC4CCN(C)CC4)cc3)C2=S)cnc1C#N` and write its reported EC50.
> 15.1 µM

Supply measured EC50 of `N#Cc1ncc(N2C(=O)C3(CCC3)N(c3ccc(C(=O)NCCCN4CCCC4)c(F)c3)C2=S)cc1C(F)(F)F` in your reply.
> 15.1 µM

====

Item-by-item account of Emax
target_or_test_system: wild-type Androgen Receptor (AR-wt) (Homo sapiens, UniProt P10275)
Construct: expressed in transfected cells; host or cells: LNCaP (LNCaP AR (cs))
assay_text: LNCaP-AR-wt AG reporter assay (ARE firefly luciferase, agonist mode)
Assay type: cell-based
conditions_used: maximum % stimulation (agonist response) over tested concentration range; read-out: LNCaP-AR-wt AG MAX % Stim
// return numeric value only (unit: %, not printed)

{"columns": ["cpd_smiles", "target_or_test_system", "experimental_result"],
 "data": [
  ["CN1CCC(NC(=O)c2ccc(N3C(=S)N(c4cnc(C#N)c(C(F)(F)F)c4)C(=O)C34CCC4)cc2F)CC1", "wild-type Androgen Receptor (AR-wt) (Homo sapiens, UniProt P10275)", 0.2],
  ["N#Cc1ncc(N2C(=O)C3(CCC3)N(c3ccc(C(=O)N4CCCC4)c(F)c3)C2=S)cc1C(F)(F)F", "wild-type Androgen Receptor (AR-wt) (Homo sapiens, UniProt P10275)", 0.4],
  ["N#Cc1ncc(N2C(=O)C3(CCC3)N(c3ccc(OCCN4CCCCC4)cc3F)C2=S)cc1C(F)(F)F", "wild-type Androgen Receptor (AR-wt) (Homo sapiens, UniProt P10275)", 1.1],
  ["N#Cc1ncc(N2C(=O)C3(CCC3)N(c3ccc(OC4CCNCC4)cc3)C2=S)cc1C(F)(F)F", "wild-type Androgen Receptor (AR-wt) (Homo sapiens, UniProt P10275)", -0.1]
]}

In one line, give reported Emax of the entry `Cc1cc(N2C(=O)C3(CCC3)N(c3ccc(O)cc3)C2=S)cnc1C#N` .
1.1

Specify Emax for `COc1cc(F)ccc1N1C(=S)N(c2cnc(C#N)c(C(F)(F)F)c2)C(=O)C12CCC2` and stop.
6

Return reported Emax. Input compound: `CN1CCN(CCCNC(=O)c2ccc(N3C(=S)N(c4cnc(C#N)c(C(F)(F)F)c4)C(=O)C34CCC4)cc2F)CC1`
2.3

Hey, just so you know, these numbers are from patent US20180008587A1.
